These entries and their values trace back to the supplement of paper PMC10065799.

Give phosphorylation enrichment for every item shown.
tested-system: EPHB2 (UniProt P29323)
Sequence (P29323 whole entry, looked up): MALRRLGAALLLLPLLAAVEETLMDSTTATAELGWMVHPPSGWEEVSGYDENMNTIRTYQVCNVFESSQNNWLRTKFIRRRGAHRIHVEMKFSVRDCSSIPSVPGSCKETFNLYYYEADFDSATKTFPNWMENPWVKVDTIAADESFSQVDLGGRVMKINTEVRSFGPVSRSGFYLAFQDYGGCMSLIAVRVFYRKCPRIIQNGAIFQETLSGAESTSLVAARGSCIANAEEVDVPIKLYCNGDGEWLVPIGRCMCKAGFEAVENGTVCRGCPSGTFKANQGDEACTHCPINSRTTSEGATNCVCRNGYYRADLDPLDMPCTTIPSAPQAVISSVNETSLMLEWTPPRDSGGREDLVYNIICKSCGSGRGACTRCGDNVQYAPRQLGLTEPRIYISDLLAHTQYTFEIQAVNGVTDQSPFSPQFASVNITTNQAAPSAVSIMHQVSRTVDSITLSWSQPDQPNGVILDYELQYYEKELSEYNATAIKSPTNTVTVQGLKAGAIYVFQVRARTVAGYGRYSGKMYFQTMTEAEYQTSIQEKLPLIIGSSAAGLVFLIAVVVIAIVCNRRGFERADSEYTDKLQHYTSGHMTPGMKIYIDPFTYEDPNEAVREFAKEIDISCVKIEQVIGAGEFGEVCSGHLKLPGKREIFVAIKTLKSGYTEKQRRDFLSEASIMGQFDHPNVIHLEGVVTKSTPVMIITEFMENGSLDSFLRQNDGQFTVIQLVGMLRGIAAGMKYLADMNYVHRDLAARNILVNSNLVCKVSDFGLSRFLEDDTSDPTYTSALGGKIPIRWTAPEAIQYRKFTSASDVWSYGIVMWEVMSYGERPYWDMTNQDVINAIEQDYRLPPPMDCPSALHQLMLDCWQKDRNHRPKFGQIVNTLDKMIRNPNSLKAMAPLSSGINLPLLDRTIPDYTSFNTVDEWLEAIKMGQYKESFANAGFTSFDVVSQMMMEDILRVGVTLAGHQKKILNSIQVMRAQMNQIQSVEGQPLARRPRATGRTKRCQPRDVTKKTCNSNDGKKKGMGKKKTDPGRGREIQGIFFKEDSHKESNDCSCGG
protocol-summary: phosphorylation enrichment, bacterial display (enrichment ratio); higher = better substrate or ligand; peptides without Tyr show the background;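 further: 11-residue human phosphosite peptides and single-mutation variants displayed on the E. coli surface, counted by deep sequencing, each peptide's frequency after selection divided by its frequency in the unselected input library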;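 further: frequency after pTyr selection over input frequency; kinase dosed for 20-30% of maximal phosphorylation in three min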
Numbers only.

{"primary-sequence": "TNRSFYFKPSL [NUP153_Y382_V381F]", "assay-value": 0.555}
{"primary-sequence": "NSNAAYEESHF [LRIF1_Y714_Q716E]", "assay-value": 0.499}
{"primary-sequence": "FPIDHYLGKEM [G6PD_Y202_R198P_YF]", "assay-value": 0.485}
{"primary-sequence": "CKLCQYFLDHL [ATRX_Y1849_Y1847C_YF]", "assay-value": 0.612}
{"primary-sequence": "QTENKYDSVSG [EIF2AK3_Y565]", "assay-value": 0.561}

Parameters: items (list). Returns: phosphorylation enrichment for each item.
1. ADRNHYRRYPR [YBX1_Y145]
2. SWDKRYCEAGC [ITGA2B_Y197_F202C]

OUT:
[0.425, 0.41]
